Test system: HOP-62 NSCLC
Experiment: NCI tumour cell line growth inhibition, 48 h
Observation type: TGI (µM)
Numbers only, in µM.

structure_string=NCCCNCCCNc1nc2ccccc2c2[nH]c3ccccc3c12 observation_type=TGI scale_unit=µM recorded_value=1.18

Any idea what its TGI is? The compound is COC(=O)/C=C(\S/C(=C(/c1ccccc1)n1cc(C(=O)OC)c(C(=O)OC)n1)c1ccccc1)C(=O)OC
31

* * *

I'd be grateful if you could share measured TGI for these entries.
Test system: SK-MEL-2 melanoma
Experiment: NCI tumour cell line growth inhibition, 48 h

Hi! Can you tell me TGI for each of these compounds?
1. COC1C2c3ccccc3C(C#N)(Cc3ccc4c(c32)OCO4)N1C(=O)c1ccccc1 (stereo not drawn)
2. CC(=O)NNc1nc(C)c(C(/C=C/c2ccc3c(c2)OCO3)=N/NC(=O)c2ccncc2)s1
3. COC12c3ccccc3-c3ccccc3C1[C@@H](C(=O)O)[C@H]2C(=O)O (stereo partly drawn)
4. CC(C)=CCc1c(O)c(CC=C(C)C)c2oc3c(c(=O)c2c1O)C(C=C(C)C)Oc1cc(O)ccc1-3 (stereo not drawn)

> 100 µM
> 100 µM
> 10 µM
7.93 µM

Hi! Can you tell me TGI for each of these compounds?
1. Cc1cc2c(C)nn(Cc3ccc(Cl)cc3Cl)c2c(C#N)c1C
2. C=C1CCC2C3(C)COC(c4cccc(Cl)c4)OC3CCC2(C)C1/C=C/C1=CCOC1=O (stereo not drawn)
3. Cc1ccc(NC(=O)CCC(=O)C2CC(=O)CCC2=O)cc1C (stereo not drawn)

1: > 100 µM; 2: > 100 µM; 3: > 100 µM

Hi! Can you tell me TGI for each of these compounds?
1. COc1ccc2c(c1)OCC1Cc3cccc(OC)c3OC21 (stereo not drawn)
2. COC(=O)c1c(OC(C)=O)ccc2c1c1c(n2Cc2ccccc2)C(=O)c2ccccc2C1=O
3. C1=C(N2CCOCC2)/C(=C2\SC(=Nc3ccccc3)C(=Nc3ccccc3)N2c2ccccc2)CC1

["> 100 µM", "36.2 µM", "> 100 µM"]

Hi! Can you tell me TGI for each of these compounds?
1. Nc1nc(Cl)c(N)c(NCC2(CO)CC(O)C2)n1 (stereo not drawn)
2. O=C(O)c1ccccc1/C=C1\Cc2ccc3c(c2C1=O)CCCC3
3. C[C@H]1ON2CCC[C@@H]2[C@@H]1C(=O)N1C2CC3CCC2(CS1(=O)=O)C3(C)C (stereo partly drawn)

["> 100 µM", "88.7 µM", "> 100 µM"]

Cited source: PubChem BioAssay (NCI)
